- Test system: Ruminococcus gnavus DSM 108212
- Assay Notes: growth (OD595) fold change vs plate DMSO controls (fold change (ratio)); higher = more growth
- Measurement Setup: incubation time: 27 h, anaerobic, 37 °C
Quantity Kind: growth
Keep it simple and answer with nothing but the number.

Recorded result, CC(=O)c1cc2cccc(OCC(O)CNC(C)C)c2o1 (centres undefined) [Befunolol] (20 µM) , growth: 0.98

Recorded result, CN(C(=O)C(Cl)Cl)c1ccc(OC(=O)c2ccco2)cc1 [Diloxanide furoate] (20 µM) , growth: 0.993

Recorded result, CC(=O)[C@H]1CC[C@H]2[C@@H]3C=CC4=CC(=O)CC[C@@]4(C)[C@@H]3CC[C@]12C [Dydrogesterone] (20 µM) , growth: 0.994

Recorded result, Nc1ccc(S(=O)(=O)Nc2ccc(Cl)nn2)cc1 [Sulfachloropyridazine] (20 µM) , growth: 0.974
